assayed.target: Env of HIV-1 strain X1254_c3 (HIV-1)
procedure.summary: cell-based or functional assay
property.measured: neutralization IC50

Some solved entries appear below for comparison.
Challenge: Recorded neutralization IC50 of 8ANC3430 (antibody, V domains shown) VH: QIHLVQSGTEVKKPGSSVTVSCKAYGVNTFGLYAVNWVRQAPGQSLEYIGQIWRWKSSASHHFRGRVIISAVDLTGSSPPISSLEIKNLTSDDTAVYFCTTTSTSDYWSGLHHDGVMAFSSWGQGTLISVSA VL: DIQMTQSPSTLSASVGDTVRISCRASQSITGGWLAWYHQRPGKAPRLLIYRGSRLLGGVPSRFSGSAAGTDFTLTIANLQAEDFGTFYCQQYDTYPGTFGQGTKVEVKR , please.
Response given: 4.28 µg/mL

Challenge: Recorded neutralization IC50 of γ15κ61 (antibody, V domains shown) VH: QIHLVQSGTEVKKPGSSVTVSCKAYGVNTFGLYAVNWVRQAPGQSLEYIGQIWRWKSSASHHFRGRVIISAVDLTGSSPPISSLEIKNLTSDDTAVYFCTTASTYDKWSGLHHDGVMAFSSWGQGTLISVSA VL: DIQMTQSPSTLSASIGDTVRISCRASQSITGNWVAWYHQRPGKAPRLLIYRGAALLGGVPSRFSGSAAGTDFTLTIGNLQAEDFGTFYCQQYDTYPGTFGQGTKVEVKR , please.
Response given: 10.9 µg/mL

Challenge: Recorded neutralization IC50 of 8ANC3040 (antibody, V domains shown) VH: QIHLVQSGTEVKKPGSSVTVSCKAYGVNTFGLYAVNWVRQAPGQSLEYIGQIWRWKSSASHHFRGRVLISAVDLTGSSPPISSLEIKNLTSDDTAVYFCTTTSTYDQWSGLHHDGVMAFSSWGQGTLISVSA VL: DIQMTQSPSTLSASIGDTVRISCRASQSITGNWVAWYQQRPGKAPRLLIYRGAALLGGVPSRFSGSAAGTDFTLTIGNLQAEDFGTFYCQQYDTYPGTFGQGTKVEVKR , please.
Response given: 2.91 µg/mL

Challenge: Recorded neutralization IC50 of γ44κ61 (antibody, V domains shown) VH: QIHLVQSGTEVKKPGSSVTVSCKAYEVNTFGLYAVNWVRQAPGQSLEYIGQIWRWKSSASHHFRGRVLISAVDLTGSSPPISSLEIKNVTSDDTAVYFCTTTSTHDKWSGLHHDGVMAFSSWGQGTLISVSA VL: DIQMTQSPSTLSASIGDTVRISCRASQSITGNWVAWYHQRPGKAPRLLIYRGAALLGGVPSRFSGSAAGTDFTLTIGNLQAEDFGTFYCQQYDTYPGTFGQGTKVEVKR , please.
Response given: > 15 µg/mL

Would you kindly look at the next entry?
Challenge: Recorded neutralization IC50 of γ52κ11 (antibody, V domains shown) VH: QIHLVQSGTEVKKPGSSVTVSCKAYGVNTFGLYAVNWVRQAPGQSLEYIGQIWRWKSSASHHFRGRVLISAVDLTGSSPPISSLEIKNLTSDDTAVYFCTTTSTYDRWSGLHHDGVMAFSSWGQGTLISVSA VL: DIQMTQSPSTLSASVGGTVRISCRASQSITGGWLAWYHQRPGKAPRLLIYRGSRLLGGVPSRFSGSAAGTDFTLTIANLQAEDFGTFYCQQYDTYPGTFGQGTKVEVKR , please.
Response given: 2.42 µg/mL

Cited source: patent US20180171001A1
